target: PAF Binding, dog platelets (Canis lupus familiaris); construct: Washed platelets were prepared by resuspending the platelet pellet once with PBS containing 1 mM EDTA; from tissue; host or cells: washed platelets from dog blood; experiment: PAF Binding Assay (inhibition of 3H-PAF binding to washed dog platelets); settings: dog platelets, 3H-PAF, 10 minutes at room temperature; read-out: Inhib of PAF Binding IC50
Sequence (A0A8I3NSH0 1-343): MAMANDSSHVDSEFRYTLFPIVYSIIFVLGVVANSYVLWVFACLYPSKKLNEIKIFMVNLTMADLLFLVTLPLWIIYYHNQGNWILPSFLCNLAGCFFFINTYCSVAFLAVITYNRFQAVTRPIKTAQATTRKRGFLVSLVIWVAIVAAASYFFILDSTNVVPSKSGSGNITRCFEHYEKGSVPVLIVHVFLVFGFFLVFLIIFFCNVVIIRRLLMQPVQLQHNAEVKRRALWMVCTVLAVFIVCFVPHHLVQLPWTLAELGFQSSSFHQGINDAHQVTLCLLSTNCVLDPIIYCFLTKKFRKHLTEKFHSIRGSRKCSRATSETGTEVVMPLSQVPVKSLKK
Collected IC50 values appear next to each entry.
The figure you give is taken to be in nM; do not add the unit.

COc1cccc(/C(=C\C=C\C(=O)NCCCCc2cccnc2)c2cccc(F)c2)c1 ... 25
CCCCCCCC/C(=C\C=C\C(=O)N[C@H](C)CCCc1cccnc1)c1ccc(OC)cc1 ... 5
O=C(/C=C/C=C(c1ccc(Cl)cc1)c1ccc(Cl)cc1)NCCCCc1cccnc1 ... 60

In: // returns reported IC50 for input COc1ccc(C(=C/C=C/C(=O)N[C@H](C)CCCc2cccnc2)c2ccc(OC)c(OC)c2)cc1OC
Out: 50

In: Quick one: COc1ccc(/C(=C/C=C/C(=O)N[C@H](C)CCCc2cccnc2)c2cccs2)cc1
Out: 16

In: // same read-out, input: CCCC/C(=C\C=C\C(=O)N[C@H](C)CCCc1cccnc1)c1cccc(OC)c1
Out: 15

In: Try CCCCC/C(=C\C=C\C(=O)NC(C)CCCc1cccnc1C)c1ccc(OC)cc1 (racemic) next.
Out: 5

In: O=C(/C=C/C=C(c1cccc(F)c1)c1cccc(F)c1)NCCCCc1cccnc1 ?
Out: 20

In: Another compound to look at: O=C(/C=C/C=C(c1ccc(F)cc1)c1ccc(F)cc1)NCCCCc1cccnc1
Out: 40

In: Now consider CCCCC/C(=C\C=C\C(=O)NCCCCc1cccnc1)c1ccc(OC)cc1 and answer again.
Out: 15

In: Subsequent entry: COc1ccc(C(=C/C=C/C(=O)NCCCOc2cccnc2)c2ccc(OC)cc2)cc1
Out: 300

In: Now try COc1ccc(C(=C/C=C/C(=O)Nc2ccc(-c3cccnc3)cc2)c2ccc(OC)cc2)cc1 .
Out: 10

In: Can you check O=C(/C=C\C=C(c1ccccc1)c1ccccc1)NCCCCc1cccnc1 next?
Out: 400

In: # iterate: COc1ccc(/C(=C\C=C\C(=O)NCCCCc2cccnc2)c2cccnc2)cc1
Out: 25

In: Same question, CCCCC/C(=C\C=C\C(=O)N[C@H](C)CCCc1cccnc1)c1cccc(F)c1 this time
Out: 30

In: Lookup CCCCC/C(=C\C=C\C(=O)N[C@H](C)CCCc1cccnc1)c1ccc(OC)c(OC)c1
Out: 6

In: Please answer likewise for COc1cccc(/C(=C/C=C/C(=O)NCCCCc2cccnc2)c2cccc(F)c2)c1
Out: 40

In: Next up: COc1ccc(/C(=C\C=C\C(=O)N[C@H](C)CCCc2cccnc2)C(C)C)cc1
Out: 40

---

test system: PAF-Induced Bronchoconstriction; assay: PAF Induced Bronchoconstriction Assay; assay type: in vivo, guinea pig; conditions: i.v. (dose not given), 1 minute pretreatment, PAF 1.0 μg/kg i.v.
MEASURED METRIC: Percent Inhib. of PAF-Induced Bronchoconstriction, mg/Kg i.v. (%)
Unit % implied. Number only.

In: Find the recorded Percent Inhib. of PAF-Induced Bronchoconstriction, mg/Kg i.v. belonging to CCCCC/C(=C\C=C\C(=O)N[C@@H](C)CCCc1cccnc1)c1ccc(OC)cc1 and report it.
Out: 46

In: What would you report for Cc1ccc(C(=C/C=C/C(=O)N[C@H](C)CCCc2cccnc2)c2ccc(C)cc2)cc1 ?
Out: 97

In: Also, C[C@@H](CCCc1cccnc1)NC(=O)/C=C/C=C(c1cccc(F)c1)c1cccc(F)c1 please.
Out: 34

In: Now consider COc1ccc(/C(=C\C=C\C(=O)N[C@H](C)CCCc2cccnc2)C(C)C)cc1 .
Out: 89

In: What do you get for COc1ccc(/C(=C/C=C/C(=O)N[C@H](C)CCCc2cccnc2)C2CCCCC2)cc1 ?
Out: 73

---

test system: PAF-Induced Bronchoconstriction; experiment: PAF Induced Bronchoconstriction Assay; type: in vivo, guinea pig; conditions: i.v. (dose not given), 1 minute pretreatment, PAF 1.0 μg/kg i.v.
Please map values of Percent Inhib. of PAF-Induced Bronchoconstriction, mg/Kg i.v. to classes as shown: low bracket (below 60%), middle bracket (60% to below 90%), high bracket (90% or more)

The following molecules have reported results that may help.
COc1ccc(/C(=C/C=C/C(=O)N[C@H](C)CCCc2cccnc2)C(C)C)cc1 ... low bracket
CC[C@@H](CCCc1cccnc1)NC(=O)/C=C/C=C(c1ccc(OC)cc1)c1ccc(OC)cc1 ... low bracket
COc1ccc(C(=C/C=C/C(=O)NCCCCc2cccnc2)c2ccc(OC)c(OC)c2)cc1OC ... middle bracket
O=C(/C=C/C=C(c1cccc(Cl)c1)c1cccc(Cl)c1)NCCCCc1cccnc1 ... middle bracket
COc1ccccc1C(=C/C=C/C(=O)NCCCCc1cccnc1)c1ccccc1OC ... low bracket
CCCCC/C(=C/C=C/C(=O)NCCCCc1cccnc1)c1ccc(OC)cc1 ... middle bracket
COc1ccc(/C(=C/C=C/C(=O)N[C@H](C)CCCc2cccnc2)C2CC2)cc1 ... low bracket
COc1ccc(/C(=C/C=C/C(=O)N[C@H](C)CCCc2cccnc2)c2cccs2)cc1 ... high bracket
CCCCC/C(=C\C=C\C(=O)N[C@H](C)CCCc1cccnc1)c1ccc(F)cc1 ... high bracket
CC/C(=C\C=C\C(=O)N[C@H](C)CCCc1cccnc1)c1ccc(OC)cc1 ... middle bracket

Now let's try a different one.
In: Hey, which category is CCCCC/C(=C\C=C\C(=O)N[C@H](C)CCCc1cccnc1)c1ccc(OC)cc1 in, do you know?
Out: high bracket

---

biological target: PAF Binding, dog platelets (Canis lupus familiaris); construct: Washed platelets were prepared by resuspending the platelet pellet once with PBS containing 1 mM EDTA; from tissue; host or cells: washed platelets from dog blood; experiment: PAF Binding Assay (inhibition of 3H-PAF binding to washed dog platelets); conditions: dog platelets, 3H-PAF, 10 minutes at room temperature; read-out: Inhib of PAF Binding IC50
Each record here notes measured pIC50.
pIC50 is defined as minus the log10 of a concentration measured in mol/L.

Some compounds with known pIC50 results, for comparison:
COc1ccc(/C=C/C=C/C(=O)N[C@H](C)CCCc2cccnc2)cc1 ... 7.52
COc1ccc(C(=C/C=C/C(=O)NCCOCc2cccnc2)c2ccc(OC)cc2)cc1 ... 7.60
COc1ccc(/C(=C/C=C/C(=O)N[C@H](C)CCCc2cccnc2)C2CC2)cc1 ... 7.30
CCCC/C(=C\C=C\C(=O)N[C@H](C)CCCc1cccnc1)c1ccc(OC)cc1 ... 7.85
COc1cccc(C(=C/C=C/C(=O)NCCCCCCc2cccnc2)c2cccc(OC)c2)c1 ... 6.35
COc1ccc(C(=C/C=C/C(=O)NC(C)CCCc2ccc(C)nc2)c2ccc(OC)cc2)cc1 (racemic) ... 6.15

In: Recorded pIC50 of COc1ccc(/C(=C/C=C/C(=O)NCCCCc2cccnc2)c2ccccc2OC)cc1 , please.
Out: 7.26

In: Note, next up: CC[C@@H](CCCc1cccnc1)NC(=O)/C=C/C=C(c1ccc(OC)cc1)c1ccc(OC)cc1
Out: 6.40

In: Next compound: COc1ccccc1C(=C/C=C/C(=O)NCCCCc1cccnc1)c1ccccc1OC
Out: 7.40

In: Same thing, different compound: CC/C(=C\C=C\C(=O)N[C@H](C)CCCc1cccnc1)c1ccc(OC)cc1
Out: 7.52

---

molecular target: PAF Binding, dog platelets (Canis lupus familiaris); construct: Washed platelets were prepared by resuspending the platelet pellet once with PBS containing 1 mM EDTA; from tissue; host or cells: washed platelets from dog blood; assay: PAF Binding Assay (inhibition of 3H-PAF binding to washed dog platelets)
MEASURED METRIC: IC50 (µM)
Give the quantity in µM, number only.

In: Name the recorded IC50 for O=C(/C=C/C=C(c1cccc([N+](=O)[O-])c1)c1cccc([N+](=O)[O-])c1)NCCCCc1cccnc1 .
Out: 0.115

---

The entries below come with measured Percent Inhib. of PAF-Induced Bronchoconstriction, mg/Kg i.v. values attached.
system: PAF-Induced Bronchoconstriction; experiment: PAF Induced Bronchoconstriction Assay; assay type: in vivo, guinea pig; conditions: i.v. (dose not given), 1 minute pretreatment, PAF 1.0 μg/kg i.v.
Respond with the bare value in %.

CCCC(CCCc1cccnc1)NC(=O)/C=C/C=C(c1ccc(OC)cc1)c1ccc(OC)cc1 (racemic) ... 24
COc1ccc(C(=C/C=C/C(=O)NC(C)CCCc2cccnc2C)c2ccc(OC)cc2)cc1 (racemic) ... 47

In: Recorded Percent Inhib. of PAF-Induced Bronchoconstriction, mg/Kg i.v. for COc1ccc(C(=C/C=C/C(=O)NC(CCCc2cccnc2)C2CCCC2)c2ccc(OC)cc2)cc1 (racemic) , please?
Out: 19

In: Try O=C(/C=C/C=C(c1ccc(Cl)cc1)c1ccc(Cl)cc1)NCCCCc1cccnc1 next.
Out: 95
